From: the NIST ThermoML archive (doi:10.1021/je700026d)

- conditionLabel: 298.15 K; 101.3 kPa; Liquid; Capillary tube (Ostwald / Ubbelohde) method
experimentalEndpoint: viscosity (mPa·s)

INSERT INTO results (compound, experimentalendpoint, endpointunit, endpointvalue) VALUES
  ('COCCOC', 'viscosity', 'mPa·s', 0.409),
  ('CC(=O)c1ccccc1', 'viscosity', 'mPa·s', 1.653),
  ('C[S+](C)[O-] [dimethyl sulfoxide]', 'viscosity', 'mPa·s', 2.042),
  ('NC=O [formamide]', 'viscosity', 'mPa·s', 3.302),
  ('COCCO', 'viscosity', 'mPa·s', 1.543),
  ('CC#N', 'viscosity', 'mPa·s', 0.344);

###

- conditionLabel: 318.15 K; 101.3 kPa; Liquid; Capillary tube (Ostwald / Ubbelohde) method
viscosity by entry:
experimentalEndpoint: viscosity (mPa·s)

INSERT INTO assay_data (compound, endpointvalue) VALUES
  ('CC(=O)c1ccccc1 [acetophenone]', 1.117),
  ('COCCOC [1,2-dimethoxyethane]', 0.33),
  ('COCCO [2-methoxyethan-1-ol]', 1.051),
  ('CC#N [acetonitrile]', 0.289),
  ('C[S+](C)[O-] [dimethyl sulfoxide]', 1.485),
  ('NC=O [formamide]', 2.001);
